Literature IC50 values, system: Prostaglandin G/H synthase 2 (Homo sapiens, UniProt P35354).
# system.tested: Prostaglandin G/H synthase 2 (Homo sapiens, UniProt P35354)
# Sequence (P35354 whole entry): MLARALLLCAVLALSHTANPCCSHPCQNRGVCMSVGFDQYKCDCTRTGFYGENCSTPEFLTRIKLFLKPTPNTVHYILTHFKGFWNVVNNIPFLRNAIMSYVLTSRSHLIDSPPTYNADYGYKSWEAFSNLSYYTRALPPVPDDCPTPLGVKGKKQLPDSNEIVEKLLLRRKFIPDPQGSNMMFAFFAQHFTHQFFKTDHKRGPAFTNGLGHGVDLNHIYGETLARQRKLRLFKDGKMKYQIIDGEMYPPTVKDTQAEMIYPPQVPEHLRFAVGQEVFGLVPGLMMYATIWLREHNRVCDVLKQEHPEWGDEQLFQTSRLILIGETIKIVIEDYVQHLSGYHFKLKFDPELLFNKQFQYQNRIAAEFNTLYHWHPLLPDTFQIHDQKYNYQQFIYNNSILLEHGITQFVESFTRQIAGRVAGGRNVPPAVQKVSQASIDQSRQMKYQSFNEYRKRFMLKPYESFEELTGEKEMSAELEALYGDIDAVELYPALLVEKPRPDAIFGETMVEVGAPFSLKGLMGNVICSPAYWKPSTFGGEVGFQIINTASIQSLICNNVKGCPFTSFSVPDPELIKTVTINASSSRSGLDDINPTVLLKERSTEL
reported.endpoint: IC50 (µM)

These recorded examples may help you get a feel for the data.
# smiles.input, unit.string, reported.result
data = [
    ("CC(=O)Oc1ccccc1SCCCCCBr", "µM", 9.5),
    ("Cc1cc(-c2ccc(S(C)(=O)=O)cc2)c(-c2ccc(F)cc2)s1", "µM", 10),
    ("NS(=O)(=O)c1ccc(-c2conc2-c2ccccc2)cc1", "µM", 0.048),
]

P = CS(=O)(=O)c1ccc(-c2nn(CCc3ccccc3)cc2-c2ccc(F)cc2)cc1
Q = COc1ccc(/C=C/c2cc(OC)cc(OC)c2/C=C/C(=O)NCCCN2CCOCC2)cc1
Smaller IC50 value? Options are P and Q # reply format: chosen label P
(P: 0.53 µM, Q: 8.92 µM)

###

For reference, the following IC50 results for Prostaglandin G/H synthase 2 (Homo sapiens) were taken from various sources.
# system.tested: Prostaglandin G/H synthase 2 (Homo sapiens)
# Sequence (P35354 whole entry): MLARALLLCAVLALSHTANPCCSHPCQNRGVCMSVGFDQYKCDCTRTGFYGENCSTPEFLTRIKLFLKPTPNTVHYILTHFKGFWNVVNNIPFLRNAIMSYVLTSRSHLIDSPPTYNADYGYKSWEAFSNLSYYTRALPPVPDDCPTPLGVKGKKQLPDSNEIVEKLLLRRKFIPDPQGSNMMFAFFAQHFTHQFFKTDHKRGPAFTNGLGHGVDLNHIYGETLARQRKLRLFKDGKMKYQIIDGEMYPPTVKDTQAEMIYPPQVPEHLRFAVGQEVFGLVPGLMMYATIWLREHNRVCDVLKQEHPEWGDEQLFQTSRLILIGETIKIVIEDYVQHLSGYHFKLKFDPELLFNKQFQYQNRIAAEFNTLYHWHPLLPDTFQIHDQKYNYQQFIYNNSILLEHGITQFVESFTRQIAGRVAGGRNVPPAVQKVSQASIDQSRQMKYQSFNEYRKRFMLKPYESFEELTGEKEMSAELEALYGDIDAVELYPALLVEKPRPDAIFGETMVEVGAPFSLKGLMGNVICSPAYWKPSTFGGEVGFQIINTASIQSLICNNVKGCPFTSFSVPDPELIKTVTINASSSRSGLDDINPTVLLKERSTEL
reported.endpoint: IC50 (µM)

a = COC(=O)COc1ccc(/C=C/c2ccc(Cl)cc2)cc1
b = COc1ccc2c(c1)c(CC(=O)NCCCCCO)c(C)n2C(=O)c1ccc(Cl)cc1
c = Nc1n[nH]c(/N=C2/C(=O)Nc3ccc(S(=O)(=O)N4CCCC4)cc32)c1/N=N/c1ccc(O)cc1
d = CS(=O)(=O)Nc1ccncc1NC1CCCCCC1
Please sort the compounds listed above from highest to lowest IC50. # respond with the labels, arranged in the requested order c, d, a, b
(c: 36.5 µM, d: 13.5 µM, a: 7.52 µM, b: 0.29 µM)

###

pIC50: −log10 of the molar value.
Compiled record: pIC50 values for Prostaglandin G/H synthase 2 (Homo sapiens) across several sources.
reported.endpoint: pIC50

# compound, pIC50
records = [
    ("CC1(C)CC(c2ccccc2)C(CN2CCC(c3noc4cc(F)ccc34)CC2)=NO1 (configuration not stated)", 4.98),
]

a = NS(=O)(=O)c1ccc(-n2nc(C(=O)NCCN3CCOCC3)cc2-c2ccc(Cl)cc2)cc1
b = COc1cccc(-c2cc(C(=O)N3CCSCC3)nn2-c2ccc(S(N)(=O)=O)cc2)c1
Larger number for pIC50: a , or b ? Answer by stating the label of the chosen item. a
(a: 6.51, b: 5.71)

1 = COc1ccc2c(c1)c(CC(=O)NCCCCCCO)c(C)n2C(=O)c1ccc(Cl)cc1
2 = COCCCNC(=O)c1ccccc1Nc1c(Cl)ccc(C)c1Cl
3 = COc1ccc2c(c1)c(CC(=O)OCCc1ccccc1)c(C)n2C(=O)c1ccc(Cl)cc1
4 = Cc1ccc(-n2cc(CSc3nc4ccccc4o3)nn2)cc1C
5 = O=c1cc(CSc2nnc(CSc3nc4cc(Cl)ccc4o3)o2)c2ccc3ccccc3c2o1
Rank descending by pIC50. List the labels in the requested order. 3, 1, 4, 2, 5

P = NS(=O)(=O)c1ccc(-n2nc(C(F)(F)F)c3c2-c2cccc(F)c2CS3)cc1
Q = O=C(COc1cc(O)c2c(=O)cc(-c3ccccc3)oc2c1)OCc1cc(-c2ccc(Br)cc2)n(-c2ccccc2)n1
R = Cc1cc(C)c2c(CSc3nnc(CSc4nc5ccccc5o4)o3)cc(=O)oc2c1
S = O=C1CSC(N2N=C(c3ccc(Cl)c(Cl)c3)CC2c2ccc(Cl)cc2)=N1 (configuration not stated)
T = COc1ccc(C2CC(c3ccc(Cl)c(Cl)c3)=NN2C2=NC(=O)CS2)cc1 (configuration not stated)
Could you please sort these 5 entries by pIC50 from high to low? Rank them, then answer with their labels in that order. P, Q, T, S, R
(P: 7.68, Q: 5.67, T: 5.17, S: 4.93, R: 4.26)

1 = COc1ccc(C2CC(c3ccc(C)c(C)c3)=NN2C2=NC(=O)CS2)cc1 (configuration not stated)
2 = CS(=O)(=O)c1ccc(-c2sc(-c3ccncc3)nc2-c2ccc(F)cc2)cc1
3 = Cc1ccc(-c2sccc2-c2ccc(S(C)(=O)=O)cc2)cc1
Arrange the 3 compounds by rising pIC50, starting with the smallest. Give your ranking as a list of the labels in the requested order. 3, 1, 2
(3: 4.89, 1: 5.54, 2: 5.80)

###

Study the reported IC50 values for Prostaglandin G/H synthase 2 (Homo sapiens, UniProt P35354) given below; they originate from different publications.
reported.endpoint: IC50 (µM)

Examples from the recorded data:
# compound, system.tested, IC50, µM
measured = [
    ("COc1ccc(-c2cscc2-c2ccc(S(C)(=O)=O)cc2)cc1", "Prostaglandin G/H synthase 2 (Homo sapiens, UniProt P35354)", 0.05),
    ("NS(=O)(=O)c1ccc(-c2cscc2-c2ccc(F)cc2)cc1", "Prostaglandin G/H synthase 2 (Homo sapiens, UniProt P35354)", 0.008),
    ("Cc1cccc(C2CC(c3ccc(C)c(C)c3)=NN2C2=NC(=O)CS2)c1 (centres undefined)", "Prostaglandin G/H synthase 2 (Homo sapiens, UniProt P35354)", 2.7),
    ("CCCCCCCCCCCCCCCCCC(=O)O[C@H]1C[C@@H](O)[C@]2(C)[C@H]3CC[C@@H]4[C@@H]([C@@](C)(O)CCC=C(C)C)CC[C@@]4(C)[C@]3(C)CC[C@H]2C1(C)C", "Prostaglandin G/H synthase 2 (Homo sapiens, UniProt P35354)", 0.37),
    ("Cc1ccc(-c2cc(C(=O)N3CCOCC3)nn2-c2ccc(S(N)(=O)=O)cc2)cc1", "Prostaglandin G/H synthase 2 (Homo sapiens, UniProt P35354)", 0.93),
    ("COC(=O)[C@@H](C)NC(=O)Cc1c(C)n(C(=O)c2ccc(Cl)cc2)c2ccc(OC)cc12", "Prostaglandin G/H synthase 2 (Homo sapiens, UniProt P35354)", 0.4),
    ("COc1cccc(-c2cc(C(=O)N3CCOCC3)nn2-c2ccc(S(N)(=O)=O)cc2)c1", "Prostaglandin G/H synthase 2 (Homo sapiens, UniProt P35354)", 2.25),
    ("O=S(=O)(Nc1ccncc1NC1CCCCCC1)C(F)(F)F", "Prostaglandin G/H synthase 2 (Homo sapiens, UniProt P35354)", 1.62),
    ("CS(=O)(=O)c1ccc(-c2cc(-c3ccccc3)no2)cc1", "Prostaglandin G/H synthase 2 (Homo sapiens, UniProt P35354)", 13.5),
    ("CCOC(=O)CNC(=O)c1ccccc1Nc1c(Cl)ccc(C)c1Cl", "Prostaglandin G/H synthase 2 (Homo sapiens, UniProt P35354)", 4),
]

P = C=Cc1cc(Cl)cc2c1OC(C(F)(F)F)C(C(=O)O)=C2 (centres undefined)
Q = Cc1ccc(-n2nc(COC(=O)COc3cc(O)c4c(=O)cc(-c5ccccc5)oc4c3)cc2-c2cccc(Cl)c2)cc1
Compare reported IC50 values for P and Q . Which is lower? Write down the label of the entry you select. P
(P: 0.018 µM, Q: 4.8 µM)

P = O=C(NCCc1c[nH]c2ccccc12)c1ccccc1Nc1ccccc1
Q = COc1ccc(/C=C/c2cc(OC)cc(OC)c2/C=C/C(=O)O)cc1
Which of the two gives a bigger number for IC50: P or Q ? Refer to your chosen item by its label in the answer. Q
(Q: 6.89 µM, P: 2.62 µM)
